- System Under Test: UniProt P51449
- Protocol Text: Inverse agonist activity at human recombinant GST-tagged RORgammat ligand binding domain assessed as effect on receptor-biotin tagged TRAP220 co-activator peptide interaction using 10 nM GST-RORgamma LBD by FRET-based assay
pIC50: −log10 of the molar value.
Assign Met whenever pIC50 does not fall below 7; assign Not met whenever it does.

1. CCN(CC)c1cc(-c2cc(C(N)=O)ccc2Cl)ccc1N(C)C(=O)c1c(F)cccc1Cl Met
2. NC(=O)c1cccc(-c2ccc3c(c2)CCCN3C(=O)c2c(F)cccc2Cl)c1 Not met
3. NC(=O)c1ccc(Cl)c(-c2ccc3c(c2)C(F)(F)CCN3C(=O)c2c(F)cccc2Cl)c1 Not met
4. COCCNC(=O)c1ccc(Cl)c(-c2ccc3c(c2)CCCN3C(=O)c2c(F)cccc2Cl)c1 Not met
5. CN1CCN(C(=O)c2c(F)cccc2Cl)c2ccc(-c3cc(C(N)=O)ccc3Cl)cc21 Not met

* * *

- System Under Test: Nuclear receptor ROR-gamma (Homo sapiens)
- Sequence (P51449 whole entry): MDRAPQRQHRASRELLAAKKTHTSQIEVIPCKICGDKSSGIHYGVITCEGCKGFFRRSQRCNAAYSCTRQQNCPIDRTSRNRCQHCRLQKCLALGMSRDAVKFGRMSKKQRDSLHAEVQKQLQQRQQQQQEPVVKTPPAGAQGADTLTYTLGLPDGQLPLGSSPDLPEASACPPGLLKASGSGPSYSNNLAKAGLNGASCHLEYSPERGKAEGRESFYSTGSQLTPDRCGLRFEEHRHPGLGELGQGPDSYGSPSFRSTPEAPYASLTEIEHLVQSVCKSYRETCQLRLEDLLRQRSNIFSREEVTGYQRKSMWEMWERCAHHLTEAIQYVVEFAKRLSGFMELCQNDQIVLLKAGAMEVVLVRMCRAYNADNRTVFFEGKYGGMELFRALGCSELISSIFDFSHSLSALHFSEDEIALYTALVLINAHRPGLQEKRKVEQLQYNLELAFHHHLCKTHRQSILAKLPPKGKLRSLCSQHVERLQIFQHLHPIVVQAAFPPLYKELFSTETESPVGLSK
- Protocol Text: Inverse agonist activity at human recombinant GST-tagged RORgammat ligand binding domain assessed as effect on receptor-biotin tagged TRAP220 co-activator peptide interaction using 10 nM GST-RORgamma LBD by FRET-based assay
pIC50: −log10 of the molar value.
In this section we review reported pIC50 values for a set of compounds.

Compound	pIC50
NC(=O)c1ccc(Cl)c(-c2ccc3c(c2)CCN3C(=O)c2c(F)cccc2Cl)c1	5.32
CCN(C(=O)c1c(F)cccc1Cl)c1ccc(-c2cc(C(N)=O)ccc2Cl)cc1C(F)(F)F	5.80
NC(=O)c1cc(-c2ccc3c(c2)CCCN3C(=O)c2c(F)cccc2Cl)c(Cl)cc1F	6.26
CNC(=O)c1ccc(Cl)c(-c2ccc3c(c2)CCCN3C(=O)c2c(F)cccc2Cl)c1	7.00
CN(C(=O)c1c(F)cccc1Cl)c1ncc(-c2cc(C(N)=O)ccc2Cl)cc1OCC(F)(F)F	7.70
O=C(NCCN1CCOCC1)c1ccc(Cl)c(-c2ccc3c(c2)CCCN3C(=O)c2c(F)cccc2Cl)c1	5.67
CCNc1cc(-c2cc(C(N)=O)ccc2Cl)ccc1N(C)C(=O)c1c(F)cccc1Cl	6.30
Cn1ccc2c(S(=O)(=O)N(CC(F)(F)F)c3ccc(-c4cc(C(N)=O)ccc4Cl)cc3)cccc21	6.15
CN(C)C(=O)c1ccc(Cl)c(-c2ccc3c(c2)CCCN3C(=O)c2c(F)cccc2Cl)c1	5.68
Cc1ccc(C(N)=O)cc1-c1ccc2c(c1)CCCN2C(=O)c1c(F)cccc1Cl	6.52
NC(=O)c1cc(-c2ccc3c(c2)CCCN3C(=O)c2c(F)cccc2Cl)ccc1F	5.03
CN(C(=O)c1c(F)cccc1Cl)c1ccc(-c2cc(C(N)=O)ccc2Cl)cc1N1CCCCC1	8.52
CC1CCc2cc(-c3cc(C(N)=O)ccc3Cl)ccc2N1C(=O)c1c(F)cccc1Cl (centres undefined)	5.00
CC1(C)CCN(C(=O)c2c(F)cccc2Cl)c2ccc(-c3cc(C(N)=O)ccc3Cl)cc21	6.70
CN(C(=O)c1c(F)cccc1Cl)c1ncc(-c2cc(C(N)=O)ccc2Cl)cc1OCC1CCC1	8.00
O=C(NC1CCCC1)c1ccc(Cl)c(-c2ccc3c(c2)CCCN3C(=O)c2c(F)cccc2Cl)c1	6.43
CC1(C)Cc2cc(-c3cc(C(N)=O)ccc3Cl)ccc2N(C(=O)c2c(F)cccc2Cl)C1	6.19
NC(=O)c1ccc(Cl)c(-c2ccc3c(c2)CCCCN3C(=O)c2c(F)cccc2Cl)c1	6.44
NC(=O)c1cc(-c2ccc3c(c2)CCCN3C(=O)c2c(F)cccc2Cl)c(F)cc1F	5.15

* * *

In this section we review reported half-life values for a set of molecules.
- Protocol Text: Half life in rat at 2 mg/kg, iv
- Format: ADME, organism-based
- Recorded Conditions: in vivo
Assay Endpoint: half-life (h)

1. [2H]C([2H])([2H])N(C(=O)c1c(F)cccc1Cl)c1ccc(-c2cc(C(N)=O)ccc2Cl)cc1OCC(F)(F)F 9.6
2. CN(C(=O)c1c(F)cccc1Cl)c1ccc(-c2cc(C(N)=O)ccc2Cl)cc1OCC(F)(F)F 1.3

* * *

- Protocol Text: Oral bioavailability in rat at 10 mg/kg
- Assay type: ADME, organism-based
- Recorded Conditions: in vivo
Assay Endpoint: bioavailability (%)

1) CN(C(=O)c1c(F)cccc1Cl)c1ccc(-c2cc(C(N)=O)ccc2Cl)cc1OCC(F)(F)F 28
2) [2H]C([2H])([2H])N(C(=O)c1c(F)cccc1Cl)c1ccc(-c2cc(C(N)=O)ccc2Cl)cc1OCC(F)(F)F 41

* * *

- Protocol Text: Cmax in rat at 2 mg/kg, iv
- Type: ADME, organism-based
- Design: dose 2 mg/kg, route intravenous
- Recorded Conditions: in vivo
Assay Endpoint: Cmax

1. CN(C(=O)c1c(F)cccc1Cl)c1ccc(-c2cc(C(N)=O)ccc2Cl)cc1OCC(F)(F)F 2350 ng/mL
2. [2H]C([2H])([2H])N(C(=O)c1c(F)cccc1Cl)c1ccc(-c2cc(C(N)=O)ccc2Cl)cc1OCC(F)(F)F 2740 ng/mL

* * *

- System Under Test: Nuclear receptor ROR-gamma (Homo sapiens, UniProt P51449)
- Protocol Text: Inverse agonist activity at Gal4 DNA binding domain-tagged human RORgammat expressed in HEK293T cells assessed as effect on receptor-mediated transcriptional activity by luciferase reporter gene assay
In this section we review reported log10 EC50 values for a set of molecules.
Assay Endpoint: log10 EC50 (log10 of the value in nM)

1) CCCCOc1cc(-c2cc(C(N)=O)ccc2Cl)ccc1N(C)C(=O)c1c(F)cccc1Cl 2.00
2) O=C(NCCO)c1ccc(Cl)c(-c2ccc3c(c2)CCCN3C(=O)c2c(F)cccc2Cl)c1 2.32
3) COc1cc(-c2cc(C(N)=O)ccc2Cl)ccc1N(C)C(=O)c1c(F)cccc1Cl 2.99
4) [2H]C([2H])([2H])N(C(=O)c1c(F)cccc1Cl)c1ncc(-c2cc(C(N)=O)ccc2Cl)cc1OCC1CCC1 1.78
5) NC(=O)c1cc(-c2ccc3c(c2)CCCN3C(=O)c2c(F)cccc2Cl)c(Cl)cc1F 2.15
6) CCNC(=O)c1ccc(Cl)c(-c2ccc3c(c2)CCCN3C(=O)c2c(F)cccc2Cl)c1 2.20
7) CCN(CC)c1cc(-c2cc(C(N)=O)ccc2Cl)ccc1N(C)C(=O)c1c(F)cccc1Cl 1.08
8) CC1(C)CCN(C(=O)c2c(F)cccc2Cl)c2ccc(-c3cc(C(N)=O)ccc3Cl)cc21 2.48
9) CCc1cc(-c2cc(C(N)=O)ccc2Cl)ccc1N(C)C(=O)c1c(F)cccc1Cl 2.54
10) CC1(C)Cc2cc(-c3cc(C(N)=O)ccc3Cl)ccc2N(C(=O)c2c(F)cccc2Cl)C1 2.65
11) [2H]C([2H])([2H])N(C(=O)c1c(F)cccc1Cl)c1ncc(-c2cc(C(N)=O)ccc2Cl)cc1OCC(F)(F)F 2.39
12) CCNc1cc(-c2cc(C(N)=O)ccc2Cl)ccc1N(C)C(=O)c1c(F)cccc1Cl 2.86
13) Cc1ccc(C(N)=O)cc1-c1ccc2c(c1)CCCN2C(=O)c1c(F)cccc1Cl 2.65
14) CCOc1cc(-c2cc(C(N)=O)ccc2Cl)ccc1N(C)C(=O)c1c(F)cccc1Cl 2.26
15) CN(C(=O)c1c(F)cccc1Cl)c1ccc(-c2cc(C(N)=O)ccc2Cl)cc1Br 2.89
16) CN(C(=O)c1c(F)cccc1Cl)c1ncc(-c2cc(C(N)=O)ccc2Cl)cc1OCC(F)(F)F 2.39
17) CN1CCN(C(=O)c2c(F)cccc2Cl)c2ccc(-c3cc(C(N)=O)ccc3Cl)cc21 2.32
18) CN(C(=O)c1c(F)cccc1Cl)c1ccc(-c2cc(C(N)=O)ccc2Cl)cc1N1CCCCC1 0.90

* * *

- System Under Test: Nuclear receptor ROR-alpha (Homo sapiens, UniProt P35398)
- Sequence (P35398 whole entry, the tested form may be a part): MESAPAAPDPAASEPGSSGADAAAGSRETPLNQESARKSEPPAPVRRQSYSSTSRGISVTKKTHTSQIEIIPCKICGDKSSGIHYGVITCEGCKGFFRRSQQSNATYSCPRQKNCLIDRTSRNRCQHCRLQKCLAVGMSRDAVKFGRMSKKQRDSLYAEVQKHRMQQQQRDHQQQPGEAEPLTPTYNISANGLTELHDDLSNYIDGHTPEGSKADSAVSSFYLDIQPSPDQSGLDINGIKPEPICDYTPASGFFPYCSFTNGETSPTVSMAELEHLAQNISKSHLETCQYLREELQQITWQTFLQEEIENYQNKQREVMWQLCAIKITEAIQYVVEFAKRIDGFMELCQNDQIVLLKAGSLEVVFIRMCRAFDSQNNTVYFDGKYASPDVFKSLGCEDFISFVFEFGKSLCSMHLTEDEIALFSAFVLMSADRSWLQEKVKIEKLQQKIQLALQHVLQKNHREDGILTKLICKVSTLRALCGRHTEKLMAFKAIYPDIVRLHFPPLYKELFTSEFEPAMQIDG
- Protocol Text: Inverse agonist activity at Gal4 DNA binding domain-tagged human RORalpha expressed in HEK293T cells assessed as effect on receptor-mediated transcriptional activity by luciferase reporter gene assay
Assay Endpoint: EC50

1. [2H]C([2H])([2H])N(C(=O)c1c(F)cccc1Cl)c1ccc(-c2cc(C(N)=O)ccc2Cl)cc1OCC(F)(F)F 8.36 µM
